# Test system: NCI-H196 complex spheroids with HUVEC/MSC, growth % T/C
# test_description: Anticancer human tumor NCI-H196 cell line growth inhibition [Asc]; active = viability on the fitted dose curve at most 10% of control; inactive = the rest
# experimental_conditions: second compound 1 µM; first compound 3 µM
Thanks in advance; please answer with one of these: class 1 for active, class 0 for inactive

# input Status in this test for CCN1C(C(=O)NC23CCC(C(=O)O)(CC2)CC3)C(c2cccc(Cl)c2F)C2(C(=O)Nc3cc(Cl)ccc32)C12CCCCC2 (centres undefined) + CNC(C)C(=O)NC1CN(S(=O)(=O)c2cccc(S(=O)(=O)N3CCC4CCC(C(=O)NC(c5ccccc5)c5ccccc5)N4C(=O)C(NC(=O)C(C)NC)C3)c2)CCC2CCC(C(=O)NC(c3ccccc3)c3ccccc3)N2C1=O ?
# output class 1

###

# Tested on: NCI-H196 complex spheroids with HUVEC/MSC, growth % T/C
# test_description: Anticancer human tumor NCI-H196 cell line growth inhibition [Asc];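 also: spheroids exposed to compound for 7 days before measurement; 100% = DMSO vehicle control wells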
# experimental_conditions: second compound 0.1 µM; first compound 10 µM; hits give low values
outcome_measure: viability, T/C

compound: C#Cc1c(F)ccc2cc(O)cc(-c3ncc4c(N5CC6CCC(C5)N6)nc(OCC56CCCN5CC(F)C6)nc4c3F)c12 (configuration not stated) + Cc1c(S(C)(=O)=O)c(-c2cc(F)cc(N3CCN(c4ccc(NS(=O)(=O)c5ccc(NC(CCN6CCC(C(=O)OCCCP(=O)(O)O)CC6)CSc6ccccc6)c(S(=O)(=O)C(F)(F)F)c5)cc4)CC3)c2)c(-c2ccc(Cl)cc2)n1C(C)C
recorded_measurement: 93.5%

Data point: C=CC(=O)N1CCN(c2nc(=O)n(-c3c(C)ccnc3C(C)C)c3nc(-c4c(O)cccc4F)c(F)cc23)C(C)C1 (configuration not stated) + CNC(C)C(=O)NC1CN(S(=O)(=O)c2cccc(S(=O)(=O)N3CCC4CCC(C(=O)NC(c5ccccc5)c5ccccc5)N4C(=O)C(NC(=O)C(C)NC)C3)c2)CCC2CCC(C(=O)NC(c3ccccc3)c3ccccc3)N2C1=O ; viability, T/C = 9.85%

Data point: O=C(c1cc(Cc2n[nH]c(=O)c3ccccc23)ccc1F)N1CCN(C(=O)C2CC2)CC1 + Cc1c(S(C)(=O)=O)c(-c2cc(F)cc(N3CCN(c4ccc(NS(=O)(=O)c5ccc(NC(CCN6CCC(C(=O)OCCCP(=O)(O)O)CC6)CSc6ccccc6)c(S(=O)(=O)C(F)(F)F)c5)cc4)CC3)c2)c(-c2ccc(Cl)cc2)n1C(C)C ; viability, T/C = 89.5%

Data point: C=CC(=O)N1CCN(c2nc(=O)n(-c3c(C)ccnc3C(C)C)c3nc(-c4c(O)cccc4F)c(F)cc23)C(C)C1 (configuration not stated) + Cc1c(S(C)(=O)=O)c(-c2cc(F)cc(N3CCN(c4ccc(NS(=O)(=O)c5ccc(NC(CCN6CCC(C(=O)OCCCP(=O)(O)O)CC6)CSc6ccccc6)c(S(=O)(=O)C(F)(F)F)c5)cc4)CC3)c2)c(-c2ccc(Cl)cc2)n1C(C)C ; viability, T/C = 97.9%

Data point: C=C(F)C(=O)N1CCN(c2nc(OCC3CCCN3C)nc3c2CCN(c2cccc4cccc(Cl)c24)C3)CC1CC#N (configuration not stated) + CNC(C)C(=O)NC1CN(S(=O)(=O)c2cccc(S(=O)(=O)N3CCC4CCC(C(=O)NC(c5ccccc5)c5ccccc5)N4C(=O)C(NC(=O)C(C)NC)C3)c2)CCC2CCC(C(=O)NC(c3ccccc3)c3ccccc3)N2C1=O ; viability, T/C = 0.18%

Data point: C#Cc1c(F)ccc2cc(O)cc(-c3ncc4c(N5CC6CCC(C5)N6)nc(OCC56CCCN5CC(F)C6)nc4c3F)c12 (configuration not stated) + CNC(C)C(=O)NC1CN(S(=O)(=O)c2cccc(S(=O)(=O)N3CCC4CCC(C(=O)NC(c5ccccc5)c5ccccc5)N4C(=O)C(NC(=O)C(C)NC)C3)c2)CCC2CCC(C(=O)NC(c3ccccc3)c3ccccc3)N2C1=O ; viability, T/C = 0.77%

Data point: C=C(F)C(=O)N1CCN(c2nc(OCC3CCCN3C)nc3c2CCN(c2cccc4cccc(Cl)c24)C3)CC1CC#N (configuration not stated) + Cc1c(S(C)(=O)=O)c(-c2cc(F)cc(N3CCN(c4ccc(NS(=O)(=O)c5ccc(NC(CCN6CCC(C(=O)OCCCP(=O)(O)O)CC6)CSc6ccccc6)c(S(=O)(=O)C(F)(F)F)c5)cc4)CC3)c2)c(-c2ccc(Cl)cc2)n1C(C)C ; viability, T/C = 74.8%

###

# Tested on: NCI-H196 complex spheroids with HUVEC/MSC, growth % T/C
# test_description: Anticancer human tumor NCI-H196 cell line growth inhibition [Asc];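 also: spheroids exposed to compound for 7 days before measurement; 100% = DMSO vehicle control wells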
# experimental_conditions: second compound 3 µM; first compound 0.0316 µM; hits give low values
Collected viability, T/C values appear next to each entry.
Express your answer in %, writing the number without its unit.

molecule: Cn1ncnc1[C@H]1c2n[nH]c(=O)c3cc(F)cc(c23)N[C@@H]1c1ccc(F)cc1 + CCN1C(C(=O)NC23CCC(C(=O)O)(CC2)CC3)C(c2cccc(Cl)c2F)C2(C(=O)Nc3cc(Cl)ccc32)C12CCCCC2
outcome_measure: viability, T/C
recorded_measurement: 131

Data point: O=C(c1ccc(F)c(F)c1Nc1ccc(I)cc1F)N1CC(O)([C@@H]2CCCCN2)C1 + CCN1C(C(=O)NC23CCC(C(=O)O)(CC2)CC3)C(c2cccc(Cl)c2F)C2(C(=O)Nc3cc(Cl)ccc32)C12CCCCC2 ; viability, T/C = 126

Data point: C#Cc1c(F)ccc2cc(O)cc(-c3ncc4c(N5CC6CCC(C5)N6)nc(OCC56CCCN5CC(F)C6)nc4c3F)c12 (centres undefined) + CCN1C(C(=O)NC23CCC(C(=O)O)(CC2)CC3)C(c2cccc(Cl)c2F)C2(C(=O)Nc3cc(Cl)ccc32)C12CCCCC2 ; viability, T/C = 118

Data point: C=CC(=O)N1CCN(c2nc(=O)n(-c3c(C)ccnc3C(C)C)c3nc(-c4c(O)cccc4F)c(F)cc23)C(C)C1 (centres undefined) + CCN1C(C(=O)NC23CCC(C(=O)O)(CC2)CC3)C(c2cccc(Cl)c2F)C2(C(=O)Nc3cc(Cl)ccc32)C12CCCCC2 ; viability, T/C = 116

###

# System: NCI-H196 complex spheroids with HUVEC/MSC, growth % T/C
# test_description: Anticancer human tumor NCI-H196 cell line growth inhibition [Asc];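 also: spheroids exposed to compound for 7 days before measurement; 100% = DMSO vehicle control wells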
# experimental_conditions: second compound 1 µM; first compound 0.01 µM; hits give low values
outcome_measure: viability, T/C (%)
Express your answer in %, writing the number without its unit.

Before answering, review these 2 worked examples.
molecule: O=C(c1ccc(F)c(F)c1Nc1ccc(I)cc1F)N1CC(O)([C@@H]2CCCCN2)C1 + CNC(C)C(=O)NC1CN(S(=O)(=O)c2cccc(S(=O)(=O)N3CCC4CCC(C(=O)NC(c5ccccc5)c5ccccc5)N4C(=O)C(NC(=O)C(C)NC)C3)c2)CCC2CCC(C(=O)NC(c3ccccc3)c3ccccc3)N2C1=O
viability, T/C, %: 3.54
//
molecule: CCN1CCN(Cc2ccc(Nc3ncc(F)c(-c4cc(F)c5nc(C)n(C(C)C)c5c4)n3)nc2)CC1 + Cc1c(S(C)(=O)=O)c(-c2cc(F)cc(N3CCN(c4ccc(NS(=O)(=O)c5ccc(NC(CCN6CCC(C(=O)OCCCP(=O)(O)O)CC6)CSc6ccccc6)c(S(=O)(=O)C(F)(F)F)c5)cc4)CC3)c2)c(-c2ccc(Cl)cc2)n1C(C)C
viability, T/C, %: 91.7

Data point: NC1CCC(NC2CC2c2ccccc2)CC1 (centres undefined) + CNC(C)C(=O)NC1CN(S(=O)(=O)c2cccc(S(=O)(=O)N3CCC4CCC(C(=O)NC(c5ccccc5)c5ccccc5)N4C(=O)C(NC(=O)C(C)NC)C3)c2)CCC2CCC(C(=O)NC(c3ccccc3)c3ccccc3)N2C1=O ; viability, T/C = 3.47

Data point: O=C(c1ccc(F)c(F)c1Nc1ccc(I)cc1F)N1CC(O)([C@@H]2CCCCN2)C1 + Cc1c(S(C)(=O)=O)c(-c2cc(F)cc(N3CCN(c4ccc(NS(=O)(=O)c5ccc(NC(CCN6CCC(C(=O)OCCCP(=O)(O)O)CC6)CSc6ccccc6)c(S(=O)(=O)C(F)(F)F)c5)cc4)CC3)c2)c(-c2ccc(Cl)cc2)n1C(C)C ; viability, T/C = 89.1

###

Collected viability, T/C values appear next to each entry.
# Test system: NCI-H196 complex spheroids with HUVEC/MSC, growth % T/C
# test_description: Anticancer human tumor NCI-H196 cell line growth inhibition [Asc];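 also: spheroids exposed to compound for 7 days before measurement; 100% = DMSO vehicle control wells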
# experimental_conditions: second compound 0.316 µM; first compound 0.1 µM; hits give low values
Express your answer in %, writing the number without its unit.

Before answering, review these 2 worked examples.
compound: O=C(c1ccc(F)c(F)c1Nc1ccc(I)cc1F)N1CC(O)([C@@H]2CCCCN2)C1 + Cc1c(S(C)(=O)=O)c(-c2cc(F)cc(N3CCN(c4ccc(NS(=O)(=O)c5ccc(NC(CCN6CCC(C(=O)OCCCP(=O)(O)O)CC6)CSc6ccccc6)c(S(=O)(=O)C(F)(F)F)c5)cc4)CC3)c2)c(-c2ccc(Cl)cc2)n1C(C)C
unit_info: %
viability, T/C: 97.4
//
compound: C=CC(=O)N1CCN(c2nc(=O)n(-c3c(C)ccnc3C(C)C)c3nc(-c4c(O)cccc4F)c(F)cc23)C(C)C1 (stereo not drawn) + CNC(C)C(=O)NC1CN(S(=O)(=O)c2cccc(S(=O)(=O)N3CCC4CCC(C(=O)NC(c5ccccc5)c5ccccc5)N4C(=O)C(NC(=O)C(C)NC)C3)c2)CCC2CCC(C(=O)NC(c3ccccc3)c3ccccc3)N2C1=O
unit_info: %
viability, T/C: 3.64

Log: NCI-H196 complex spheroids with HUVEC/MSC, growth % T/C, compound COc1c(OCCCN2CCOCC2)ccc2c3n(c(=NC(=O)c4cnc(N)nc4)nc12)CCN3 + CNC(C)C(=O)NC1CN(S(=O)(=O)c2cccc(S(=O)(=O)N3CCC4CCC(C(=O)NC(c5ccccc5)c5ccccc5)N4C(=O)C(NC(=O)C(C)NC)C3)c2)CCC2CCC(C(=O)NC(c3ccccc3)c3ccccc3)N2C1=O , viability, T/C = 3.02
